assay summary: Solubility of model compounds in aqueous solutions of polymer D4.1 (mixed directly with polymeric solution; Table 4B)
Assay type: physicochemical
protocol conditions: D4.1 polymer concentration 5 w/v %, room temperature, duplicate
metric name: Solubility in aqueous solution of diblock copolymer D4.1 (µg/mL)
Just the number please, in µg/mL, no unit attached.

Record summary for COc1cc2c(cc1OC)C1=NO[C@@H](CN3CCN(C/C(C)=C/c4ccc(F)cc4)CC3)[C@@H]1CO2 (relative stereo) : reported Solubility in aqueous solution of diblock copolymer D4.1 = 1010

Record summary for "CS(=O)(=O)O.O=c1c2c([nH]c3ccccc13)[C@@H](c1ccc3c(c1)CCO3)N(c1ccccn1)C2" : reported Solubility in aqueous solution of diblock copolymer D4.1 = 9830

GET /value?item= "O=c1c2c([nH]c3ccccc13)[C@@H](c1ccc3c(c1)CCO3)N(c1ncc(-c3ccccn3)cn1)C2" &field=Solubility in aqueous solution of diblock copolymer D4.1 returns 81

Recorded Solubility in aqueous solution of diblock copolymer D4.1 (molecule Cc1cc(C#N)cc(C)c1Oc1nc(Nc2ccc(C#N)cc2)nc(N)c1Br [TMC 125] ): 300

---

Could you please report measured solubility at 24 h for the items listed next?
assay summary: Solubility of model compounds in aqueous solutions of polymer D4.1 (mixed directly with polymeric solution; Table 4B)
Type: physicochemical
protocol conditions: 1% (w/v) aqueous solution of diblock copolymer D4.1, aqueous with cosolvent or surfactant or cyclodextrin, thermodynamic from solid; D4.1 polymer concentration 1 w/v %, room temperature, duplicate
# output: bare number, implied unit µg/mL

# solubility at 24 h (compound: "Cc1cc(C=CC#N)cc(C)c1Nc1ccnc(Nc2ccc(C#N)cc2)n1" ) is 50

For "CC(=O)NC[C@H]1CN(c2ccc(N3Cc4cn(C)nc4C3)c(F)c2)C(=O)O1" the compound record lists solubility at 24 h as 20

In plain terms, "Cc1cc(C#N)cc(C)c1Oc1nc(Nc2ccc(C#N)cc2)nc(N)c1Br" has a documented solubility at 24 h of 60

# solubility at 24 h of "Cc1cc2c(cc1-c1cc(/C=C3\SC(=O)NC3=O)ccc1OC(F)(F)F)C(C)(C)CCC2(C)C" = 34

So for "Nc1nc(Nc2ccc(S(N)(=O)=O)cc2)nn1C(=O)c1c(F)cccc1F" , the logged solubility at 24 h turned out to be 530
